Method Summary: Hemolysis of washed human red blood cells (H50)
Assay type: cell-based
Run Parameters: human, red blood cells
Description: The hemolytic activity of ET-18-OCH3 /CHOL, DOPE, POPC or DOPC liposomes, prepared as described below in Example 2, have also been examined, as described hereinbelow in Example 3. […] Hemolysis was assessed as previously described (Perkins et al., 1992). […] Hemolysis was quantitated by absorbance at 550 nm using a Shimadzu 2101 UV-Vis Scanning Spectrophotometer (Shimadzu Corp., Kyoto, Japan). […]
Quantity Name: HC50 at 20 h (µM)
Write the number in µM without appending the unit.

# input Fill in the blank: the reported HC50 at 20 h of CCCCCCCCCCCCCCCCCCOC[C@H](COP(=O)([O-])OCC[N+](C)(C)C)OC is ____.
# output 16

====

I'd appreciate it if you could supply MMAM (A0) of individual lipid values for the items below.
Method Summary: Monolayer mean molecular area per molecule (MMAM) measurement, Langmuir-Blodgett mini-trough
Format: physicochemical
Run Parameters: single-lipid monolayer, 23° C., 10 mM HEPES, 150 mM NaCl, pH 7.2, extrapolated to zero surface pressure
Write the number in Å^2 without appending the unit.

# input Fill in the blank: the reported MMAM (A0) of individual lipid of CCCCCCCC/C=C\CCCCCCCC(=O)OC(COC(=O)CCCCCCCCCCCCCCC)COP(=O)([O-])OCC[N+](C)(C)C (centres unmarked) is ____.
# output 82.0

# input Queued: CCCCCCCC/C=C\CCCCCCCC(=O)OCC(COP(=O)(O)OCCN)OC(=O)CCCCCCC/C=C\CCCCCCCC (centres unmarked)
# output 82.3

# input Queued: CCCCCCCC/C=C\CCCCCCCC(=O)OCC(COP(=O)([O-])OCC[N+](C)(C)C)OC(=O)CCCCCCC/C=C\CCCCCCCC (centres unmarked)
# output 82.0

# input Queued: CCCCCCCCCCCCCCCCCCOC[C@H](COP(=O)([O-])OCC[N+](C)(C)C)OC
# output 72.8

# input Queued: CC(C)CCC[C@@H](C)[C@H]1CC[C@H]2[C@@H]3CC=C4C[C@@H](O)CC[C@]4(C)[C@H]3CC[C@]12C
# output 44.8

Numbers sourced from patent US5932242A.
